// provenance: PubChem BioAssay AID1009

Consider the following molecules; for each one, report its inhibition.
target: Induced myeloid leukemia cell differentiation protein Mcl-1 (Homo sapiens) (UniProt Q07820); assay: Mcl-1/Bim interaction disruptors – biochemical, bead-based flow cytometry, multiplex, primary screen (AID 1009); conditions: Bim peptide-Mcl-1 binding, at 10 µM, stronger effect = higher value;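 further: 0% = no compound tracer wells and 100% = peptide blocker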
Sequence (Q07820 whole entry, looked up): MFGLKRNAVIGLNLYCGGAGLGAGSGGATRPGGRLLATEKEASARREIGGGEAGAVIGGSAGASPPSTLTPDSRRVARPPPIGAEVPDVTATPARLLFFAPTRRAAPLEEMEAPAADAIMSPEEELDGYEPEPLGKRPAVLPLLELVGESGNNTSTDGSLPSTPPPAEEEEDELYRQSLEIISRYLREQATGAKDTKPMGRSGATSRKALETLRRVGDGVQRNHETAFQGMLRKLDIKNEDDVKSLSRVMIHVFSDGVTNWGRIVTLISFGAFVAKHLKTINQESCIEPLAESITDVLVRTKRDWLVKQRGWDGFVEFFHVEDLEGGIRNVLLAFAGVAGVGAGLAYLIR
The whole screen tested about 190,000 compounds, of which about 200 (0.11%) were called active. Many of the other results were omitted from the sample, so actives are more common in it than they were.
Reply numerically in %, unit not repeated.

Request: Which inhibition is listed for `Cc1ccc(Cl)cc1NC(=O)c1ccccn1` ?
Result: -2

Request: Now give it for `C/C(=N/OC(=O)c1c(-c2c(F)cccc2Cl)noc1C)c1cnccn1` too.
Result: -2

Request: Now give it for CCCCC1S/C(=N/N=C/c2cccs2)NC1=O (stereo unspecified) too.
Result: -1

Request: Now give it for `COc1ccc2oc(=O)c(C(=O)N3CCCC3)cc2c1` too.
Result: 3

Request: Now give it for `Cc1nc2ccccc2c(C)c1C(=O)c1ccc(F)cc1` too.
Result: 0

Request: Now give it for COc1ccc(Cl)cc1NC(=O)COC(=O)C(CC(C)C)N1C(=O)C2CC=CCC2C1=O (stereo unspecified) too.
Result: -1

Request: Now give it for `COc1ccc(-c2ccc(CNCCCN3CCOCC3)o2)cc1Cl` too.
Result: 2

Request: Now give it for `O=C(/C=C/c1ccccc1)Oc1coc(CSc2ncccn2)cc1=O` too.
Result: 0

Request: Now give it for `COc1cccc(NC(=O)COC(=O)CCOc2ccccc2OC)c1` too.
Result: 0

Request: Now give it for `O=C(CCN1C(=O)/C(=C/c2cccs2)SC1=S)NNC(=O)c1cccc(O)c1` too.
Result: 0

Request: Now give it for `Cc1ccc(C)c(Cn2cnc3c(oc4ccccc43)c2=O)c1` too.
Result: -1
